test system: XF498; assay: Cytotoxicity against human XF498 cells after 48 hrs by SRB assay; assay type: functional; conditions: XF498, 48 h, read-out: ED50 (the source's name)
property-measured: EC50 (µg/mL)
State just the number; it will be interpreted in µg/mL.

> print(dat)
                                   compound  target.or.test.system  property.measured  recorded.result
1  CCCCCCCCCCCCCCC(COC[C@H](O)COP(=O)([O-])OCC[N+](C)(C)C)OC (stereo partly specified)                  XF498               EC50              4.5
2  COc1cccc2c1C(=O)c1c(O)c3c(c(O)c1C2=O)C[C@@](O)(C(=O)CO)C[C@@H]3O[C@H]1C[C@H](N)[C@H](O)[C@H](C)O1                  XF498               EC50             0.08
3  CCCCCCCCCCC/C=C\CC(COC[C@H](O)COP(=O)([O-])OCC[N+](C)(C)C)OC (stereo partly specified)                  XF498               EC50                4

Let us move to another entry and its EC50.
Fill in reported EC50 for this entry: CCCCCCCCCCCCCCCCOC[C@@H](O)COP(=O)([O-])OCC[N+](C)(C)C
4.9

----------
tested on: SK-MEL-2 (Homo sapiens); assay: Cytotoxicity against human SK-MEL-2 cells after 48 hrs by SRB assay; conditions: SK-MEL-2, 48 h, read-out: ED50 (the source's name)
We begin with a simple list: items and their reported EC50.
State just the number; it will be interpreted in µg/mL.

Example entries begin here.
> print(dat)
                                   compound  result.units  recorded.result
1  CCCCCCCCCCCCCCCCOC[C@@H](O)COP(=O)([O-])OCC[N+](C)(C)C         µg/mL              5.4
2  COc1cccc2c1C(=O)c1c(O)c3c(c(O)c1C2=O)C[C@@](O)(C(=O)CO)C[C@@H]3O[C@H]1C[C@H](N)[C@H](O)[C@H](C)O1 [DOXORUBICIN]         µg/mL             0.02

Fill in reported EC50 for this entry: CCCCCCCCCCC/C=C\CC(COC[C@H](O)COP(=O)([O-])OCC[N+](C)(C)C)OC (stereo partly specified)
3.8

Fill in reported EC50 for this entry: CCCCCCCCCCCCCCC(COC[C@H](O)COP(=O)([O-])OCC[N+](C)(C)C)OC (stereo partly specified)
5.2
